# protocol.details: soluble on expression in E. coli; label from the status in PepcDB or PDB records
quantity.name: soluble on expression in E. coli

{"sequence.input": "SKVKVAVRIRPMNRRETDLHTKCVVDVDANKVILNPVNTNLSKGDARGQPKVFAYDHCFWSMDESVKEKYAGQDIVFKCLGENILQNAFDGYNACIFAYGQTGSGKSYTMMGTADQPGLIPRLCSGLFERTQKEENEEQSFKVEVSYMEIYNEKVRDLLDPKGSRQTLKVREHSVLGPYVDGLSKLAVTSYKDIESLMSEGNKSRTVAATNMNEESSRSHAVFKITLTHTLYDVKSGTSGEKVGKLSLVDLAGSERATKTGAAGDRLKEGSNINKSLTTLGLVISALADQSAGKNKNKFVPYRDSVLTWLLKDSLGGNSKTAMVATVSPAADNYDETLSTLRYADRAKHHHHHH", "endpoint.value": "soluble"}
{"sequence.input": "SNRVNDPLIFIRDIKPGLKNLNVVFIVLEIGRVTKTKDGHEVRSCKVADKTGSITISVWDEIGGLIQPGDIIRLTRGYASMWKGCLTLYTGRGGELQKIGEFCMVYSEVPNFSEPNPDYRGQQNKGAQSEQKNNSMNSNMGTGTFGPVGNGVHTGPESREHQFSHAGRSNGRGLINPQLQGTASNQTVMTTISNGRDPRRAFKR", "endpoint.value": "soluble"}
